We begin with a simple list: items and their reported IC50.
Target: EGFR L858R/T790M/C797S (Homo sapiens, UniProt P00533, C797S/L858R/T790M)
Sequence (P00533 25-1210 T790M/C797S/L858R): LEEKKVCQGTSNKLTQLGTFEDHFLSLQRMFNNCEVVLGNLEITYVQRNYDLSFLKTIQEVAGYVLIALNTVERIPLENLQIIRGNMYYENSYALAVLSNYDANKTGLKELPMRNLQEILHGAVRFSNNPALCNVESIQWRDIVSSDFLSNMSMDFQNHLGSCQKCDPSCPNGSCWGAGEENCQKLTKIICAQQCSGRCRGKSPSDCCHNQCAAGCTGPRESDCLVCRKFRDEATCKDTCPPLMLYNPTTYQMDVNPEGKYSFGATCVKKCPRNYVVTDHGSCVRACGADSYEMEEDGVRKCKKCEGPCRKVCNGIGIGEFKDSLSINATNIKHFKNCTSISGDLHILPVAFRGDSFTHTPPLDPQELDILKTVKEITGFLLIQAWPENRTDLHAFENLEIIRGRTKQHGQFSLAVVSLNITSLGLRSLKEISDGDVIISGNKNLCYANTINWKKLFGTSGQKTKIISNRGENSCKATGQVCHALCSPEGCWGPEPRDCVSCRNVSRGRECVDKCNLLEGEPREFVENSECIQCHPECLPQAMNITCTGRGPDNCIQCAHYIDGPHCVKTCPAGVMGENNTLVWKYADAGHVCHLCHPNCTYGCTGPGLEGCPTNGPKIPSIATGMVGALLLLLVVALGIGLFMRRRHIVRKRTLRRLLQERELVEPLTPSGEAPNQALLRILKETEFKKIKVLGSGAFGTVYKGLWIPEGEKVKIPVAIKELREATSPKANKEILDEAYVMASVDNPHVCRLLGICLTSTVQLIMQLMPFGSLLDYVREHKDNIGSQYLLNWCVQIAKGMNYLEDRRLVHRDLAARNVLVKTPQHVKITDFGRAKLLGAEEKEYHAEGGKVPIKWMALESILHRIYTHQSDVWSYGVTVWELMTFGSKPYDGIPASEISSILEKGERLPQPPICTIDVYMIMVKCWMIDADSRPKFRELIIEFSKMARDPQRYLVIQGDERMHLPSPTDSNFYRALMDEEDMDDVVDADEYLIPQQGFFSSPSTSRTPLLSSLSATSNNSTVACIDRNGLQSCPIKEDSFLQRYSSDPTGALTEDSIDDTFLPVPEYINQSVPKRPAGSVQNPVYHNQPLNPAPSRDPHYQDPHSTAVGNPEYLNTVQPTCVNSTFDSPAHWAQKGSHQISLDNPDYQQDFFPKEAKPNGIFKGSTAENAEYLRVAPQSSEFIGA
Test: Biochemical EGFR kinase inhibition assay (Lance Ultra TR-FRET), triple mutant L858R/T790M/C797S
Settings: IC50 L858R/T790M/C797S (nM), 100 μM ATP
Just the number in nM, nothing appended.

1) CN1CCC2(CC1)CCN(c1cc(Nc3ccnc(-c4cnn(S(=O)(=O)C5CC5)c4)n3)ncc1C#Cc1cnn(C(F)F)c1)CC2 : 1.2
2) CC1(CO)CCN(c2cc(Nc3ccnc(-c4cnn(S(=O)(=O)C5CC5)c4)n3)ncc2C#CC2CCO[C@H]2C(F)(F)F)CC1 (stereo partly drawn) : 2.3

In plain terms, Cn1cc(C#Cc2cnc(Nc3ccnc(-c4cnn(S(=O)(=O)C5CC5)c4)n3)cc2N[C@H]2CCC[C@@H](O)C2)cn1 has a documented IC50 of 1.8

###

Target: EGFR L858R/C797S (Homo sapiens, UniProt P00533, C797S/L858R)
Sequence (P00533 25-1210 C797S/L858R): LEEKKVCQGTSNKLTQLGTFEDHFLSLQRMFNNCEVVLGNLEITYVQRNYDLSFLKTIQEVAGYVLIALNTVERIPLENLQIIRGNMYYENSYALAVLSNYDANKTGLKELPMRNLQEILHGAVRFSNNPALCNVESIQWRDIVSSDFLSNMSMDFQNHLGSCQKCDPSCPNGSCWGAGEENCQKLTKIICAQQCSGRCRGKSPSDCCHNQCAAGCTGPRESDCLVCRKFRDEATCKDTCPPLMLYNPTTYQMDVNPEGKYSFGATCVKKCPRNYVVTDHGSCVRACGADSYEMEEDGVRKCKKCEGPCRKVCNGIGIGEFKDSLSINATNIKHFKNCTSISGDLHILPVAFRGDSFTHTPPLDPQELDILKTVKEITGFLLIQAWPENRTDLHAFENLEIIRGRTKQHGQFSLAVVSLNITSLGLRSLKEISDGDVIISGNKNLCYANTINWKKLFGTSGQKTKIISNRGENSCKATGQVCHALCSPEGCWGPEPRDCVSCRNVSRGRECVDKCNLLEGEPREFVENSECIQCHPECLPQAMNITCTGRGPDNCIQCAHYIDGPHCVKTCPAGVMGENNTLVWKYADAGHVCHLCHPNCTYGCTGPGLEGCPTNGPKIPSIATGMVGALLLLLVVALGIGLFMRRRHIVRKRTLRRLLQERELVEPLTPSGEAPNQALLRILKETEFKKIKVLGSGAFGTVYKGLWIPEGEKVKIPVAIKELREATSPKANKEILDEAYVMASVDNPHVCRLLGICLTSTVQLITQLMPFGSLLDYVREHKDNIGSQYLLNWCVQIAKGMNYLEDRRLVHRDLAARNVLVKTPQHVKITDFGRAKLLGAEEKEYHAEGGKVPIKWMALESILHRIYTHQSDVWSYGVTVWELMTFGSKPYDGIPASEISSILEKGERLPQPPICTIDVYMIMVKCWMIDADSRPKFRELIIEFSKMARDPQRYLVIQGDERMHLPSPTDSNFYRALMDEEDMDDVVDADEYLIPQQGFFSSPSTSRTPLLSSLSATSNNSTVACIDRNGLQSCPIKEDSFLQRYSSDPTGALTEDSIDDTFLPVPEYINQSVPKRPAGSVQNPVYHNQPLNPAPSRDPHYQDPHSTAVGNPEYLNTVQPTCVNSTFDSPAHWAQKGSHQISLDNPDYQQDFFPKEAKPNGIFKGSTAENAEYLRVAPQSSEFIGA
Test: Biochemical EGFR kinase inhibition assay (Lance Ultra TR-FRET), double mutant L858R/C797S
Settings: IC50 L858R/C797S (nM), 100 μM ATP
readout.type: IC50

Answered cases to consult:
1) CC1(CO)CCN(c2cc(Nc3ccnc(-c4cnn(S(=O)(=O)C5CC5)c4)n3)ncc2C#Cc2cnn(CC3CCCOC3)c2)CC1 (centres unmarked) [Example 241] : 17.5 nM
2) CN1CCC(C#Cc2cnc(Nc3ccnc(-c4cnn(S(=O)(=O)C5CC5)c4)n3)cc2N2CCC(C)(CO)CC2)CC1 [Example 182] : 1.7 nM

CS(=O)(=O)N1CCC(C#Cc2cnc(Nc3ccnc(-c4cnn(S(=O)(=O)C5CC5)c4)n3)cc2NC2CCC(CO)CC2)C1 (centres unmarked) [Example 397] yielded IC50 of 31.3 nM

For O=S(=O)(C1CC1)N1CCC(C#Cc2cnc(Nc3ccnc(-c4cnn(S(=O)(=O)C5CC5)c4)n3)cc2N[C@H]2CC[C@@H](O)CC2)CC1 [Example 391] the molecule record lists IC50 as 63.4 nM

// sample O=S(=O)(C1CC1)n1cc(-c2nccc(Nc3cc(N[C@H]4CC[C@@H](O)CC4)c(C#Cc4ncc(CN5CCOCC5)cn4)cn3)n2)cn1 [Example 194] , its IC50 was 169 nM

Entry CC1(C#Cc2cnc(Nc3ccnc(-c4cnn(S(=O)(=O)C5CC5)c4)n3)cc2N[C@H]2CC[C@@H](O)CC2)CC1 [Example 359] , IC50 reported as 55.1 nM

Data point: Cn1cc(C#Cc2cnc(Nc3ccnc(-c4cnn(S(=O)(=O)C5CC5)c4)n3)cc2N2CCC(C)(CO)CC2)cn1 [Example 12] ; IC50 = 5.1 nM

Reported IC50 for CC1(O)CCN(c2cc(Nc3ccnc(-c4cnn(S(=O)(=O)C5CC5)c4)n3)ncc2C#CC2CCS(=O)(=O)C2)CC1 (centres unmarked) [Example 429] was 39.7 nM

###

Target: EGFR L858R/C797S (Homo sapiens, UniProt P00533, C797S/L858R)
Test: Biochemical EGFR kinase inhibition assay (Lance Ultra TR-FRET), double mutant L858R/C797S
Conditions: read-out: IC50 L858R/C797S (nM), 100 μM ATP
Measured IC50 values are reported for all entries that follow.
The answer is to be given in nM; state only the numeric part.

Completed entries (count: 2):
1) C[C@]1(O)CC[C@@H](Nc2cc(Nc3ccnc(-c4cnn(S(=O)(=O)C5CC5)c4)n3)ncc2C#CCN2CCOCC2)CC1 [Example 166] : 194
2) C[C@]1(O)CC[C@@H](Nc2cc(Nc3ccnc(-c4cnn(S(=O)(=O)C5CC5)c4)n3)ncc2C#Cc2ccc(CN3CCOCC3)cc2)CC1 [Example 158] : 809

Proceeding to the next compound to report its IC50.
Entry O=S(=O)(C1CC1)n1cc(-c2nccc(Nc3cc(N[C@H]4CC[C@@H](O)CC4)c(C#Cc4ccc(NCCN5CCOCC5)cc4)cn3)n2)cn1 [Example 172] ; IC50 = 124

###

Target: EGFR Del19/C797S (Homo sapiens, UniProt P00533, C797S/DEL746-750)
Sequence (P00533 with tags, fused parts or gaps DEL746-750/C797S): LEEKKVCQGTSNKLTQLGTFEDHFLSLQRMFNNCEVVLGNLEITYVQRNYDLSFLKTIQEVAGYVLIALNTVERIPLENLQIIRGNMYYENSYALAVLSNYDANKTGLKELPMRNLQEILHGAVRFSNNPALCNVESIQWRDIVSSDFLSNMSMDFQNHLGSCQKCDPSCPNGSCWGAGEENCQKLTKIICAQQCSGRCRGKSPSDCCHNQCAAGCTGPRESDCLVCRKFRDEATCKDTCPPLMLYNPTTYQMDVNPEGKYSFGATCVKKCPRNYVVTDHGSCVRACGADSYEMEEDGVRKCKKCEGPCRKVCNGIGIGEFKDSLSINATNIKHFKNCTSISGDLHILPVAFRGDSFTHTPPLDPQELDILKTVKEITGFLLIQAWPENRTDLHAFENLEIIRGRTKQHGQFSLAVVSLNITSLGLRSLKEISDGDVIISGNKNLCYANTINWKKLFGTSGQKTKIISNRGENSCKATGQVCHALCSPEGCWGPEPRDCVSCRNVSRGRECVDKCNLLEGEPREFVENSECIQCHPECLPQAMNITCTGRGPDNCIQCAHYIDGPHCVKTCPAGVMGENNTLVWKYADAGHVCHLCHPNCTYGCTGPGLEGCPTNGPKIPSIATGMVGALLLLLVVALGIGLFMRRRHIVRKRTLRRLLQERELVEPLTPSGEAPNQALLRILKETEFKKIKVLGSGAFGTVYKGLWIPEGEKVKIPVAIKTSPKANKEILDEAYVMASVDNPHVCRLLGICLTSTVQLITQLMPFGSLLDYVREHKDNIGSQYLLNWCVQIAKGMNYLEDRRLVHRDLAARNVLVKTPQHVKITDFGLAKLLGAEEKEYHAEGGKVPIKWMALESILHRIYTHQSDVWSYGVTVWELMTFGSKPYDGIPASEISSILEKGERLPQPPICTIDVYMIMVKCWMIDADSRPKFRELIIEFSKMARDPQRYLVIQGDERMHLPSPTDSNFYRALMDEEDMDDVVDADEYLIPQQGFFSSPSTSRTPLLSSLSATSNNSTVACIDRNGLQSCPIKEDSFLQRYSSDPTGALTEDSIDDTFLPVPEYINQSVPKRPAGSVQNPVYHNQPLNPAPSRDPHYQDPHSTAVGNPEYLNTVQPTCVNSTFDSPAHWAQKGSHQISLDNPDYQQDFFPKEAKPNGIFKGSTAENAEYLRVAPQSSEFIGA
Assay: Biochemical EGFR kinase inhibition assay (Lance Ultra TR-FRET), double mutant del19/C797S
Conditions: IC50 Del19/C797S (nM), 100 μM ATP
The entries below are paired with their reported IC50.
Supply the numeric figure in nM, leaving out any unit text.

Study these solved cases before continuing.
1) C[C@]1(O)CC[C@@H](Nc2cc(Nc3ccnc(-c4cnn(S(=O)(=O)C5CC5)c4)n3)ncc2C#Cc2cnn(CC(F)F)c2)CC1 : 7.4
2) O=S(=O)(C1CC1)n1cc(-c2nccc(Nc3cc(N4CCC[C@@H](O)C4)c(C#Cc4cnn(CCF)c4)cn3)n2)cn1 : 9.7
3) CC1(CO)CCN(c2cc(Nc3ccnc(-c4cnn(S(=O)(=O)C5CC5)c4)n3)ncc2C#Cc2cn(CC(F)F)c3ccncc23)CC1 : 7.5
4) O=S(=O)(C1CC1)n1cc(-c2nccc(Nc3cc(N4CCN(CCO)CC4)c(C#Cc4cnn(CCF)c4)cn3)n2)cn1 : 165
5) CN(C)CCC1CCCN(c2cc(Nc3ccnc(-c4cnn(S(=O)(=O)C5CC5)c4)n3)ncc2C#Cc2cnn(C)c2)C1 (centres unmarked) : 1

Lab note: measured IC50 of CN(C)CC1(C)CCN(c2cc(Nc3ccnc(-c4cnn(S(=O)(=O)C5CC5)c4)n3)ncc2C#Cc2cnn(CC(F)F)c2)CC1 was 0.7

Per the records, this compound ( Cn1cc(C#Cc2cnc(Nc3ccnc(Nc4ccccc4S(C)(=O)=O)n3)cc2N2CCC(C)(CO)CC2)cn1 ) has IC50 equal to 28

Just so you know, measured IC50 for CC(O)C1CCN(c2cc(Nc3ccnc(-c4cnn(S(=O)(=O)C5CC5)c4)n3)ncc2C#Cc2cnn(C)c2)CC1 (centres unmarked) came out at 4.4

// IC50 lookup, compound = CC1(CO)CCN(c2cc(Nc3ccnc(-c4cnn(S(=O)(=O)C5CC5)c4)n3)ncc2C#Cc2cnn(C(F)F)c2)CC1 , result: 2.4

For reference, reported IC50 for O=S(=O)(C1CC1)n1cc(-c2nccc(Nc3cc(N4CCC(CO)CC4)c(C#Cc4cnn(C5CC5(F)F)c4)cn3)n2)cn1 (centres unmarked) stands at 4

So, CN1CCN(Cc2ccc(C#Cc3cnc(Nc4ccnc(-c5cnn(S(=O)(=O)C6CC6)c5)n4)cc3N3CCC(C)(CO)CC3)cc2)CC1 ? Its IC50 was 1.6

Consider Cn1cc(C#Cc2cnc(Nc3ccnc(-c4cnn(S(=O)(=O)C5CC5)c4)n3)cc2N2CCC(C(C)(C)O)CC2)cn1 . Its measured IC50 is 9.1

# IC50 of O=S(=O)(C1CC1)n1cc(-c2nccc(Nc3cc(N[C@H]4CCC[C@H](O)C4)c(C#Cc4ccsc4)cn3)n2)cn1 = 87.8

Value of IC50 reported for the compound CN(C)C[C@@H]1CCCN(c2cc(Nc3ccnc(-c4cnn(S(=O)(=O)C5CC5)c4)n3)ncc2C#Cc2cnn(C)c2)C1 is 10.9

Documented IC50 of O=S(=O)(C1CC1)n1cc(-c2nccc(Nc3cc(N4CCC(O)CC4)c(C#Cc4ccc(N5CCOCC5)nc4)cn3)n2)cn1 : 46.9

Entry under test: Cn1cc(C#Cc2cnc(Nc3ccnc(-c4cnn(S(=O)(=O)C5CC5)c4)n3)cc2N2CCC(C(C)(C)CO)CC2)cn1 . Its IC50 was 21.7

###

Target: EGFR wildtype (WT) (Homo sapiens, UniProt P00533)
Sequence (P00533 25-1210): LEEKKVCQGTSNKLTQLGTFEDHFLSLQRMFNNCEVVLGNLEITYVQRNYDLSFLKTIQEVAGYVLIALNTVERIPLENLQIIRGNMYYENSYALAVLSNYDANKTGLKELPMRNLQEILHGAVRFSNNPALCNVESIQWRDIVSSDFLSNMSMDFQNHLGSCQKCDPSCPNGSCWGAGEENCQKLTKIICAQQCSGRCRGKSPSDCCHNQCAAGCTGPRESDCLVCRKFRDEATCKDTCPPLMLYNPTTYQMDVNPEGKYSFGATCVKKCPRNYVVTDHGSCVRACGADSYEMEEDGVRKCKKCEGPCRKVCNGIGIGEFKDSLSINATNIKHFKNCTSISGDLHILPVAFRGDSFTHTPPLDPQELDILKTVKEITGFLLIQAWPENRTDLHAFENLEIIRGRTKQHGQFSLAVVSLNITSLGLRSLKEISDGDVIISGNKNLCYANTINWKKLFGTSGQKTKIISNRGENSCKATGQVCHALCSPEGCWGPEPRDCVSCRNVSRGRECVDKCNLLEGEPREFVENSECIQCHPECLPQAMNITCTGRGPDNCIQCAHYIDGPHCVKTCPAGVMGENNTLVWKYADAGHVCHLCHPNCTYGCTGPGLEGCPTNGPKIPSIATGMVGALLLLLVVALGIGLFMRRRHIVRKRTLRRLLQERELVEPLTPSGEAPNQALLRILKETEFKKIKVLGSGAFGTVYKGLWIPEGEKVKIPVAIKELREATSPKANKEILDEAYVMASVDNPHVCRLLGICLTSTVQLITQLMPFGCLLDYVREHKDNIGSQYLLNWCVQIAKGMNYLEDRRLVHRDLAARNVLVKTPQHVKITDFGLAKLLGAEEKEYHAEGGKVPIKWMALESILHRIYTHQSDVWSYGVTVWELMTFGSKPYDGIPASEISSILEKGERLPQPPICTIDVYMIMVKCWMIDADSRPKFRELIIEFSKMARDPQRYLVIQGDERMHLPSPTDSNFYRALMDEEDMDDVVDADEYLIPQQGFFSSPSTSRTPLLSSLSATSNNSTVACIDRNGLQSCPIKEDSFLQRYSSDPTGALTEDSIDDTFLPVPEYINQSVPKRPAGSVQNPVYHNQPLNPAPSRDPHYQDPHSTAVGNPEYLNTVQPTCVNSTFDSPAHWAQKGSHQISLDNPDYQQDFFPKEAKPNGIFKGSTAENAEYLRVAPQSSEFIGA
Test: Biochemical EGFR kinase inhibition assay (Lance Ultra TR-FRET), wildtype
Conditions: Km ATP; read-out: IC50 WT (nM) Km ATP
Label Fulfilled when IC50 is strictly below 30 nM; otherwise label Not fulfilled.

// below: answered molecules
1. COC1CCN(c2cc(Nc3ccnc(-c4cnn(S(=O)(=O)C5CC5)c4)n3)ncc2C#Cc2cnn(C3CCOCC3)c2)CC1 : Not fulfilled
2. CN1CC(n2cc(C#Cc3cnc(Nc4ccnc(-c5cnn(S(=O)(=O)C6CC6)c5)n4)cc3N3CCC(C)(CO)CC3)cn2)C1 : Fulfilled
3. CN(C)CCn1cc(C#Cc2cnc(Nc3ccnc(-c4cnn(S(=O)(=O)C5CC5)c4)n3)cc2N2CCCC(CO)C2)cn1 (centres unmarked) : Fulfilled
4. O=C1CCN(c2cc(Nc3ccnc(-c4cnn(S(=O)(=O)C5CC5)c4)n3)ncc2C#Cc2cnn(C3CCOCC3)c2)CC1 : Not fulfilled
5. CN1CCN(c2cc(Nc3ccnc(-c4cnn(S(=O)(=O)C5CC5)c4)n3)ncc2C#Cc2cnn(C)c2)CC1 : Not fulfilled
6. CN(C)CCNC1CCN(c2cc(Nc3ccnc(-c4cnn(S(=O)(=O)C5CC5)c4)n3)ncc2C#Cc2cnn(C(F)(F)F)c2)CC1 : Fulfilled
7. CC(C)n1cc(C#Cc2cnc(Nc3ccnc(-c4cnn(S(=O)(=O)C5CC5)c4)n3)cc2OC[C@H]2CC[C@H](CN(C)C)CC2)cn1 : Fulfilled
8. CN1CCC(n2cc(C#Cc3cnc(Nc4ccnc(-c5cnn(S(=O)(=O)C6CC6)c5)n4)cc3N3CCC(C)(CO)CC3)cn2)CC1 : Fulfilled

Lab note: IC50 threshold 30 nM. Does this molecule come in strictly under it? CC(=O)N1CCC(n2cc(C#Cc3cnc(Nc4ccnc(-c5cnn(S(=O)(=O)C6CC6)c5)n4)cc3N3CCC(=O)CC3)cn2)CC1
Not fulfilled

I wonder whether CC(C)Nc1cc(Nc2ccnc(-c3cnn(S(=O)(=O)C4CC4)c3)n2)ncc1C#Cc1cnn(C(C)C)c1 has IC50 below 30 nM. Can you tell?
Not fulfilled

Lab note: IC50 threshold 30 nM. Does this molecule come in strictly under it? CN(C)Cc1ccc(CNc2cc(Nc3ccnc(-c4cnn(S(=O)(=O)C5CC5)c4)n3)ncc2C#Cc2cnn(C)c2)cc1
Not fulfilled

Report whether reported IC50 is lower than 30 nM (strictly) for O=S(=O)(C1CC1)n1cc(-c2nccc(Nc3cc(N4CCC(CO)C4)c(C#Cc4cnn(CCF)c4)cn3)n2)cn1 (centres unmarked)
Fulfilled

Report whether reported IC50 is lower than 30 nM (strictly) for CC(C)Oc1cc(Nc2ccnc(-c3cnn(S(=O)(=O)C4CC4)c3)n2)ncc1C#Cc1cnn(CCF)c1
Not fulfilled

Item Cn1cc(C#Cc2cnc(Nc3ccnc(-c4cnn(S(=O)(=O)C5CC5)c4)n3)cc2N[C@H]2CC[C@@](C)(O)CC2)cn1 : IC50 beneath 30 nM, strictly?
Not fulfilled

Attribution: patent US11981658B2
